Assay: Partition coefficient determined using pi values
Type: physicochemical
Conditions: octanol/water
PROPERTY: logP

Quick one: logP for `Cc1ccc2oc(=O)c3c(O)c4cccc(O[C@H]5O[C@H](CO)[C@@H](O)[C@H](O)[C@H]5O)c4c4oc(=O)c1c2c34` ? 1.35

###

Assay: Partition coefficient (logP) (HPLC)
Assay type: physicochemical
Details: octanol/water
PROPERTY: logP
Keep the answer to the number alone.

Quick one: logP for `Cc1ccc2oc(=O)c3c(O)c4cccc(O[C@H]5O[C@H](CO)[C@@H](O)[C@H](O)[C@H]5O)c4c4oc(=O)c1c2c34` ? 1.82

###

Test: Partition coefficient (logP)
Type: physicochemical
Conditions: octanol/water
compounds and their reported logP
Keep the answer to the number alone.

Example cases with answers are listed next.
Quick one: logP for `CO[C@H]1[C@@H](O)[C@@H](C)O[C@H](O[C@H]2[C@@H](Oc3cccc4c(O)c5c(=O)oc6ccc(C)c7c(=O)oc(c34)c5c67)O[C@H](C)[C@H](O)[C@@H]2O)[C@@H]1O` ? 1.8

Next: `Cc1ccc2oc(=O)c3c(O)c4cccc(O)c4c4oc(=O)c1c2c34` 4.19

Read the next record carefully.
Quick one: logP for `Cc1ccc2oc(=O)c3c(O)c4cccc(O[C@H]5O[C@H](C)[C@H](O)[C@H](O)[C@H]5O)c4c4oc(=O)c1c2c34` ? 2.07
